- TESTED_TARGET: Cholesteryl ester transfer protein (Homo sapiens, UniProt P11597)
- EXPERIMENT_DESCRIPTION: Inhibition of CETP in human whole plasma
Rule for this label: rule met means IC50 is less than 10 µM; rule not met means IC50 is at least 10 µM.

Observe how each entry below is paired with its result.
Cc1cc(C)c2oc(-c3ccc(NC(=O)COc4ccc(Cl)cc4)cc3)nc2c1    rule not met
Cc1cc(C)c2oc(-c3ccc(NC(=O)COc4ccc(F)cc4)cc3)nc2c1    rule not met
Cc1cccc(OCC(=O)Nc2ccc(-c3nc4cc(C)cc(C)c4o3)cc2)c1    rule not met
Cc1ccccc1OCC(=O)Nc1ccc(-c2nc3cc(Cl)cc([N+](=O)[O-])c3o2)cc1    rule not met
Cc1ccccc1OCC(=O)Nc1ccc(-c2nc3cc(Br)ccc3o2)cc1    rule not met

Would you kindly look at the next entry?
Ask | Does Cc1c(Cl)ccc(OCC(=O)Nc2ccc(-c3nc4cc(C#N)ccc4o3)cc2)c1C have IC50 strictly under 10 µM?
Reply | rule met

---

- TESTED_TARGET: Cholesteryl ester transfer protein (Homo sapiens, UniProt P11597)
- EXPERIMENT_DESCRIPTION: Inhibition of human CETP by scintillation proximity assay
Listed here are compounds together with their documented IC50.

Check out these entries, answers already filled in.
COc1cccc(OCC(=O)Nc2ccc(-c3nc4cc(C)cc(C)c4o3)cc2)c1    > 10 µM
Cc1ccccc1OCC(=O)Nc1ccc(-c2nc3c(C)cccc3o2)cc1    > 32 µM
Cc1ccccc1OCC(=O)Nc1ccc(-c2nc3ccc([N+](=O)[O-])cc3o2)cc1    > 32 µM
Cc1ccccc1OCC(=O)Nc1ccc(-c2nc3cccc(C(=O)O)c3o2)cc1    > 32 µM

Let's switch to this compound now.
The value of IC50 measured for the compound Cc1cc(C)c2oc(-c3ccc(NC(=O)COc4cccc(C(F)(F)F)c4)cc3)nc2c1 turned out to be > 10 µM

---

- TESTED_TARGET: Cholesteryl ester transfer protein (Homo sapiens, UniProt P11597)
- Sequence (P11597 whole entry): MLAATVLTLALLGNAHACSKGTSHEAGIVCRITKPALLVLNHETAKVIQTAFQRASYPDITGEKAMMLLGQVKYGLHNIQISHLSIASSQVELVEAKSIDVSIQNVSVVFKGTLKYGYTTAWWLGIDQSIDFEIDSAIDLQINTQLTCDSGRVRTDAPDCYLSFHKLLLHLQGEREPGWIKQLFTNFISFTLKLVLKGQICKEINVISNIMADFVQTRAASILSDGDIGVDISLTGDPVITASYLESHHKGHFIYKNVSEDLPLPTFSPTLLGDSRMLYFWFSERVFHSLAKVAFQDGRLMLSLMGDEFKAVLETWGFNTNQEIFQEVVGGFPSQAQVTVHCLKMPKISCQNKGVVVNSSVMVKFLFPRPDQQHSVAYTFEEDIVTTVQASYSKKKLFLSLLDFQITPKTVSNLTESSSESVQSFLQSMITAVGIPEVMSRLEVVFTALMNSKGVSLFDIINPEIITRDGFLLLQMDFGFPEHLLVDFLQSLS
- EXPERIMENT_DESCRIPTION: Inhibition of CETP in human whole plasma
pIC50: −log10 of the molar value.
// label = label 1 if pIC50 is not less than 5, otherwise label 0

Observe how each entry below is paired with its result.
Cc1ccccc1OCC(=O)Nc1ccc(-c2nc3cc([N+](=O)[O-])ccc3o2)cc1    label 0
Cc1ccccc1OCC(=O)Nc1ccc(-c2nc3cc(Cl)cc(Br)c3o2)cc1    label 0
CC(=O)c1cc(C)cc2nc(-c3ccc(NC(=O)COc4ccccc4C)cc3)oc12    label 0
Cc1cc(C)c2oc(-c3ccc(NC(=O)COc4ccc(Cl)c(C(F)(F)F)c4)cc3)nc2c1    label 1
N#Cc1ccc2oc(-c3ccc(NC(=O)COc4ccc(Cl)c5c4CCC5)cc3)nc2c1    label 1
Cc1ccc(OCC(=O)Nc2ccc(-c3nc4cc(C)cc(C)c4o3)cc2)c(C)c1    label 1

Ask | Textbook exercise: given the entry Cc1ccc2oc(-c3ccc(NC(=O)COc4ccccc4C)cc3)nc2c1 , state whether its pIC50 is greater than or equal to 5.
Reply | label 0

Ask | Textbook exercise: given the entry Cc1ccccc1OCC(=O)Nc1ccc(-c2nc3cccc(C)c3o2)cc1 , state whether its pIC50 is greater than or equal to 5.
Reply | label 0

Ask | Textbook exercise: given the entry Cc1cc(C)c2oc(-c3ccc(NC(=O)COc4ccc(Cl)c5c4CCC5)cc3)nc2c1 , state whether its pIC50 is greater than or equal to 5.
Reply | label 1

Ask | Textbook exercise: given the entry Cc1cc(C)c2oc(-c3ccc(NC(=O)COc4cccc(F)c4)cc3)nc2c1 , state whether its pIC50 is greater than or equal to 5.
Reply | label 0

---

- TESTED_TARGET: Cholesteryl ester transfer protein (Homo sapiens)
- EXPERIMENT_DESCRIPTION: Inhibition of human CETP by scintillation proximity assay
READOUT_LABEL: IC50

Cc1cc(C)c2oc(-c3ccc(NC(=O)COc4ccccc4C(C)C)cc3)nc2c1    > 10 µM
COc1ccc2nc(-c3ccc(NC(=O)COc4ccccc4C)cc3)oc2c1    > 32 µM
Cc1ccccc1OCC(=O)Nc1ccc(-c2nc3ccc(F)cc3o2)cc1    > 32 µM

Let's switch to this molecule now.
The value of IC50 measured for the molecule Cc1ccccc1OCC(=O)Nc1ccc(-c2nc3cc(C(=O)O)ccc3o2)cc1 turned out to be > 32 µM

---

- TESTED_TARGET: Cholesteryl ester transfer protein (Homo sapiens)
- EXPERIMENT_DESCRIPTION: Inhibition of CETP in human whole plasma
Rule for this label: met means IC50 is less than 10 µM; not met means IC50 is at least 10 µM.

Cc1cc(C)c2oc(-c3ccc(NC(=O)COc4ccc(Cl)cc4C)cc3)nc2c1    met

Ask | Does Cc1cc(C)c2oc(-c3ccc(NC(=O)COc4ccc(F)cc4C)cc3)nc2c1 have IC50 strictly under 10 µM?
Reply | met

Ask | Does COC(=O)c1cccc2nc(-c3ccc(NC(=O)COc4ccccc4C)cc3)oc12 have IC50 strictly under 10 µM?
Reply | not met

Ask | Does Cc1cc(C)c2oc(-c3ccc(NC(=O)COc4ccc(Cl)c(Cl)c4)cc3)nc2c1 have IC50 strictly under 10 µM?
Reply | not met

Ask | Does Cc1cc(C)c2oc(-c3ccc(NC(=O)COc4cccc(C(C)C)c4)cc3)nc2c1 have IC50 strictly under 10 µM?
Reply | not met

Ask | Does Cc1ccccc1OCC(=O)Nc1ccc(-c2nc3cc(C(F)(F)F)ccc3o2)cc1 have IC50 strictly under 10 µM?
Reply | not met

Ask | Does Cc1ccccc1OCC(=O)Nc1ccc(-c2nc3cc(OC(F)(F)F)ccc3o2)cc1 have IC50 strictly under 10 µM?
Reply | not met

---

- TESTED_TARGET: Cholesteryl ester transfer protein (Homo sapiens)
- EXPERIMENT_DESCRIPTION: Inhibition of human CETP by scintillation proximity assay
READOUT_LABEL: IC50

Check out these entries, answers already filled in.
Cc1cc(C)c2oc(-c3ccc(NC(=O)COc4ccccc4Cl)cc3)nc2c1    > 10 µM
Cc1cc(C)c2oc(-c3ccc(NC(=O)COc4ccccc4F)cc3)nc2c1    > 10 µM
COC(=O)c1cccc(OCC(=O)Nc2ccc(-c3nc4cc(C)cc(C)c4o3)cc2)c1    > 10 µM
Cc1cc(C)c2oc(-c3ccc(NC(=O)COc4c(Cl)cccc4Cl)cc3)nc2c1    > 10 µM

The value of IC50 measured for the molecule Cc1ccccc1OCC(=O)Nc1ccc(-c2nc3ccc(Cl)cc3o2)cc1 turned out to be > 32 µM

The value of IC50 measured for the molecule Cc1cc(C)c2oc(-c3ccc(NC(=O)COc4ccc(C#N)cc4)cc3)nc2c1 turned out to be > 10 µM

---

- TESTED_TARGET: UniProtKB P11597
- EXPERIMENT_DESCRIPTION: Inhibition of CETP in human whole plasma
Listed here are molecules together with their documented pIC50.
Units for pIC50: none; it is -log10 of a concentration expressed in mol/L.

Check out these entries, answers already filled in.
Cc1cc(C)c2oc(-c3ccc(NC(=O)COc4ccc(Cl)c(C)c4C)cc3)nc2c1    5.77
Cc1ccccc1OCC(=O)Nc1ccc(-c2nc3cc(C#N)cc(Cl)c3o2)cc1    5.60
Cc1cc(C)c2oc(-c3ccc(NC(=O)COc4cccc(Cl)c4)cc3)nc2c1    4.96
Cc1cc(C)c2oc(-c3ccc(NC(=O)COc4ccccc4C)cc3)nc2c1    5.05

Let's switch to this molecule now.
The value of pIC50 measured for the molecule Cc1ccccc1OCC(=O)Nc1ccc(-c2nc3cc(Cl)cc(Cl)c3o2)cc1 turned out to be 4.96

The reported measurements were obtained from ChEMBL document CHEMBL1144829.
